target: GABA-A receptor; alpha-3/beta-3/gamma-2 (Homo sapiens, UniProt P18507+P28472+P34903); assay: Inhibition of [3H]-Ro- 15-1788 binding to human GABA-A receptor alpha-3-beta-3-gamma-2 expressed in L(tk-) cells
Sequence (P18507 whole entry): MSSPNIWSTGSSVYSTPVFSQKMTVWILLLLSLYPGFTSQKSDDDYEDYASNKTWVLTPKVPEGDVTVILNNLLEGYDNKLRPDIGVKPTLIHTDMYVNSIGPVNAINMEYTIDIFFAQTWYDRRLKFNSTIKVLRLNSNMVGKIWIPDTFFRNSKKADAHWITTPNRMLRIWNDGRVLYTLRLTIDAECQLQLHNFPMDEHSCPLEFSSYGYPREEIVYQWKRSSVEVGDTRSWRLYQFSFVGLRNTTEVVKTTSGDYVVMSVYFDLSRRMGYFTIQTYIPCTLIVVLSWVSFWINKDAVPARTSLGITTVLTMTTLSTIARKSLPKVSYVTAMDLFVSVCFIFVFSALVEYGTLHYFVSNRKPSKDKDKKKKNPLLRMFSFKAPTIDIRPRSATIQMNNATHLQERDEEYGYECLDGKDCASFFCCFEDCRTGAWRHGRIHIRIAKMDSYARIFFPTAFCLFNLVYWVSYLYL
Sequence (P28472 whole entry): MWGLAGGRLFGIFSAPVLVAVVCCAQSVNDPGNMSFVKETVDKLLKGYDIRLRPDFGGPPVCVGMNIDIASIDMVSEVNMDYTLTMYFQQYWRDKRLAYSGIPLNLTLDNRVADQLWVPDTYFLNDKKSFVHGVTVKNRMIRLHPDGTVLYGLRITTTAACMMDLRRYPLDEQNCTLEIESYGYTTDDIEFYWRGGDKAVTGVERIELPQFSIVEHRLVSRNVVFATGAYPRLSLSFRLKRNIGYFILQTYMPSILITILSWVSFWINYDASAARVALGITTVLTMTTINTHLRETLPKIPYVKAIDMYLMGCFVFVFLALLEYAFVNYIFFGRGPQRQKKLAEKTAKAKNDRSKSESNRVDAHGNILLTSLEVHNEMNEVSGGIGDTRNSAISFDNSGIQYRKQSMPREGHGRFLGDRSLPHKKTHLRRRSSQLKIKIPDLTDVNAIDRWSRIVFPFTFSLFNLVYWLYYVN
Sequence (P34903 whole entry): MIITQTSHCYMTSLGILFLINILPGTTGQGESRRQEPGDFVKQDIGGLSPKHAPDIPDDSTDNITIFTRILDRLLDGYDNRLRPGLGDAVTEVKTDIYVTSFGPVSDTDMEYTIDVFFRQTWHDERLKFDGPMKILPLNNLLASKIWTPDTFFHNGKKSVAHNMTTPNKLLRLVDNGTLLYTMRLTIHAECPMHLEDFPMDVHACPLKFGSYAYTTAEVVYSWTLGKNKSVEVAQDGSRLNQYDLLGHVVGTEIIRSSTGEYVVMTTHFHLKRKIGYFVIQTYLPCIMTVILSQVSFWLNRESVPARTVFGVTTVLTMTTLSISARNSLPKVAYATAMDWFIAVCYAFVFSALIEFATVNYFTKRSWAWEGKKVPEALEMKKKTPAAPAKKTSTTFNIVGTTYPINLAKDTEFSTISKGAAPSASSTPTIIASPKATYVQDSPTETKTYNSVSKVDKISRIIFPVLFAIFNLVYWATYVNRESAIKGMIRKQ
METRIC: Ki (nM)

{"SMILES_ENTRY": "O=c1c2c[nH]c3c(c-2nn1-c1ccc(Cl)cc1)CCCC3", "SYSTEM_UNDER_TEST": "GABA-A receptor; alpha-3/beta-3/gamma-2 (Homo sapiens, UniProt P18507+P28472+P34903)", "UNIT_ANNOTATION": "nM", "REPORTED": 1.5}

The values you see were collected from ChEMBL document CHEMBL1143638.
